These measurements were taken from patent EP2039683B1.

# Test system: VEGF-induced edema
# assay-overview: Miles assay, VEGF as agonist
# Assay type: in vivo, Sprague-Dawley rats
# details: 0.1 mg/kg IV; VEGF 200 ng/injection site; vehicle 12
readout: Score (scale of 0-12)
In your answer, state the number alone without any accompanying words.

Examples with their reported Score (scale of 0-12) follow.
> print(dat)
                           molecular.string  reported
1           Nc1nc(N)c2nc(CNCc3ccccn3)cnc2n1         4
2  O=C(Nc1ccccc1-c1cc2ccccc2[nH]1)c1ccc(O)c(O)c1         6
3  Cl.Cl.Nc1nc(N)c2nc(-c3cccc(O)c3)c(-c3cccc(O)c3)nc2n1         4

Just so you know, measured Score (scale of 0-12) for Nc1nc(N)c2nc(CNCc3ccc4ccccc4c3)cnc2n1 came out at 4

###

# assay-overview: Cerebral stroke model, permanent middle cerebral artery occlusion
# Format: in vivo, mice
# details: 1 mg/kg BW IV 60 min after ligation; twenty four hours later
Each entry below carries its reported Infarct area in mm^3 (mean ± SEM).

Example cases with answers are listed next.
> print(dat)
                                   compound                            readout          reported
1     Nc1ncnc2nc(-c3ccccn3)c(-c3ccccn3)nc12  Infarct area in mm^3 (mean ± SEM)  27.2 ± 2.63 mm^3
2  O=C(O)c1ccccc1C(=O)Nc1ccccc1-c1cc2ccccc2[nH]1  Infarct area in mm^3 (mean ± SEM)  15.6 ± 5.16 mm^3
3  Oc1nc(O)c2nc(-c3ccccc3)c(-c3ccccc3)nc2n1  Infarct area in mm^3 (mean ± SEM)  20.2 ± 4.19 mm^3

Lab note: CN(C)S(=O)(=O)c1ccc2c(c1)/C(=C/c1cc3c([nH]1)CCCC3)C(=O)N2 [SU6656, reference compound] gave Infarct area in mm^3 (mean ± SEM) of 24.3 ± 5.3 mm^3
